# ASSAY_SYSTEM: PRMT5 (Homo sapiens, UniProt O14744)
# Construct: purchased Viva (custom protein)
# Sequence (O14744 whole entry): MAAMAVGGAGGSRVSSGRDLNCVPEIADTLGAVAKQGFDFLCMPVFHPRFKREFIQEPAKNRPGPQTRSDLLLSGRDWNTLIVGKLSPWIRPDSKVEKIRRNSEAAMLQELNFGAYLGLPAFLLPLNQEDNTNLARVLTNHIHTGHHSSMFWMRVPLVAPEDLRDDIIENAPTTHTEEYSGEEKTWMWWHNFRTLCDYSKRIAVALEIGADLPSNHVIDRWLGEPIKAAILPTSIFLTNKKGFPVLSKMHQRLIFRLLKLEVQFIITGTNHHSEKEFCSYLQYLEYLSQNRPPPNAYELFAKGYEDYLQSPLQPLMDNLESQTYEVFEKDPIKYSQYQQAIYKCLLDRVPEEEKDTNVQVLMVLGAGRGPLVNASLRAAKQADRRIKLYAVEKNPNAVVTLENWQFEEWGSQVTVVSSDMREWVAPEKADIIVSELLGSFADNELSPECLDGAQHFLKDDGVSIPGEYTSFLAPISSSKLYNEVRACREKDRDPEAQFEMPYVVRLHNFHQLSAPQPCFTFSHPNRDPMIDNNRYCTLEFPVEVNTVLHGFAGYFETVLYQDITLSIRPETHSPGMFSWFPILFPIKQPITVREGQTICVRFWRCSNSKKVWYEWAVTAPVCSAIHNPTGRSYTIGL
# Sequence (Q9BQA1 whole entry partner): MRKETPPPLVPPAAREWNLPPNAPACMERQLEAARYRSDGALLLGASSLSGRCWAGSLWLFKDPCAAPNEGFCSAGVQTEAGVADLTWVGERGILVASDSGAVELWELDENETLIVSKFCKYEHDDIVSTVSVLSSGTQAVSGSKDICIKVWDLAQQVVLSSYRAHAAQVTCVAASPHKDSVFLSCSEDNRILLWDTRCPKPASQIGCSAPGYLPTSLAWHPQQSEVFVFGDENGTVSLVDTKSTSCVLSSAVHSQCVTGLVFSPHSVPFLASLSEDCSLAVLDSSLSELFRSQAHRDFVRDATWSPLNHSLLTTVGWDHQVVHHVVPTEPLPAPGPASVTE
# PROTOCOL_DETAILS: PRMT5 biochemical IC50 assay with MTA as cofactor
# CONDITION_SUMMARY: PRMT5, MTA as cofactor; read-out: MTA IC50
MEASUREMENT_TYPE: IC50

>>> result("C[C@H]1CC[C@H](c2ccc(NS(C)(=O)=O)nc2)N(C(=O)C(=O)Nc2cncc(C(N)=O)c2)C1 (single isomer, unassigned) [Compound 985]")
"> 0.5 µM"
>>> result("CCc1cc(NC(=O)C(=O)N2C[C@H](C)CC[C@H]2c2ccc(NC(C)=O)cc2)cnc1N (single isomer, unassigned) [Compound 893]")
"> 0.5 µM"
>>> result("CCc1cc(NC(=O)C(=O)N2C[C@@H](C)CC[C@@H]2c2ccc(C(N)=O)s2)cnc1N (single isomer, unassigned) [Compound 845]")
"> 0.5 µM"

---

This listing pairs molecules with measured IC50.
# ASSAY_SYSTEM: PRMT5 (Homo sapiens, UniProt O14744)
# Construct: purchased Viva (custom protein)
# PROTOCOL_DETAILS: PRMT5 biochemical IC50 assay with MTA as cofactor
# CONDITION_SUMMARY: PRMT5, MTA as cofactor; read-out: MTA IC50
MEASUREMENT_TYPE: IC50

>>> result("COc1ncc(NC(=O)C(=O)N2C[C@@H](C)CC[C@@H]2c2ccc(F)cc2)cc1C(F)F [Compound 1057]")
"50 to 500 nM"
>>> result("CCc1cc(NC(=O)C(=O)N2C[C@@H](C)CC[C@@H]2c2ccc(NC(C)=O)cc2)cnc1N (single isomer, unassigned) [Compound 890]")
"< 50 nM"
>>> result("Cc1ccc([C@H]2CC[C@H](C)CN2C(=O)C(=O)Nc2cncc(C(N)=O)c2)cn1 (single isomer, unassigned) [Compound 645]")
"> 500 nM"
>>> result("C[C@@H]1CC[C@@H](c2cc(F)c(F)c(Cl)c2)N(C(=O)C(=O)Nc2cncc(C(N)=O)c2)C1 (single isomer, unassigned) [Compound 834]")
"< 50 nM"
>>> result("[H][C@@]1([C@]2([H])C[C@@]3(C[C@H](O)C3)C2)CC[C@@H](C)CN1C(=O)C(=O)Nc1cnc(N)c(C)c1 (single isomer, unassigned) [Compound 767]")
"50 to 500 nM"
>>> result("Cc1cc(NC(=O)C(=O)N2C[C@H](C)[C@H](C)C[C@@H]2c2ccccc2)cnc1N (single isomer, unassigned) [Compound 299]")
"> 500 nM"
>>> result("Cc1cc(NC(=O)C(=O)N2C[C@H](C)[C@H](OC(C)C)C[C@H]2c2ccccc2)cnc1N (single isomer, unassigned) [Compound 1351]")
"< 50 nM"
>>> result("CCc1cc(NC(=O)C(=O)N2C[C@@H](C)CC[C@@H]2c2ccc3cn(C)nc3c2)cnc1N [Compound 1199]")
"< 50 nM"
>>> result("CC(C)c1cc([C@@H]2CC[C@@H](C)CN2C(=O)C(=O)Nc2cncc(C(N)=O)c2)ccc1O (racemic) [Compound 552]")
"< 50 nM"
>>> result("Cc1cc(NC(=O)C(=O)N2C[C@H](C)CC[C@H]2c2ccc3nn(C)cc3c2)cnc1N (single isomer, unassigned) [Compound 1044]")
"< 50 nM"
>>> result("CCc1cc(NC(=O)C(=O)N2C[C@@H](C)CC[C@@H]2c2ccc3sc([C@@H](C)CN(C)C)nc3c2)cnc1N [Compound 1324]")
"< 50 nM"
>>> result("C[C@H]1CN(C(=O)C(=O)Nc2cncc(C(N)=O)c2)[C@H](c2ccccc2)CC1(F)F (single isomer, unassigned) [Compound 457]")
"< 50 nM"
>>> result("CCc1cc(NC(=O)C(=O)N2C[C@@H](C)CC[C@@H]2c2ccc3sc([C@H]4C[C@H](N(C)C)C4)nc3c2)cnc1N [Compound 1101]")
"< 50 nM"
>>> result("COc1cc([C@@H]2CC[C@@H](C)CN2C(=O)C(=O)Nc2cncc(C(N)=O)c2)ccc1Cl (racemic) [Compound 114]")
"< 50 nM"
>>> result("COc1ncc(NC(=O)C(=O)N2C[C@@H](C)CC[C@@H]2c2ccc3sc([C@@H]4CCN(C)C4)nc3c2)cc1C(N)=O (racemic) [Compound 1278]")
"< 50 nM"
>>> result("Cc1cc(NC(=O)C(=O)N2C[C@H](C)CC[C@H]2c2ccc(CC(F)(F)F)cc2)cnc1N (racemic) [Compound 1056]")
"< 50 nM"
>>> result("CCc1cc(NC(=O)C(=O)N2C[C@H](C)CC[C@H]2c2ccn(-c3cc[nH]n3)n2)cnc1N (single isomer, unassigned) [Compound 931]")
"< 50 nM"
>>> result("CCc1cc(NC(=O)C(=O)N2CC(C)CCC2c2ccc(N3CCC4C(CCCN4C)C3)cc2)cnc1N (single isomer, unassigned) [Compound 1111]")
"< 50 nM"
>>> result("Cc1cc(NC(=O)C(=O)N2C[C@@H](C)CC[C@@H]2c2ccc(C(F)(F)F)nc2)cnc1N (single isomer, unassigned) [Compound 1012]")
"< 50 nM"
>>> result("COc1ncc(NC(=O)C(=O)N2C[C@@H](C)CC[C@@H]2c2ccc3sc([C@H]4CCCN(C)C4)nc3c2)cc1C(N)=O [Compound 1359]")
"< 50 nM"
>>> result("CC(C)[C@@H]1CC[C@@H](C)CN1C(=O)C(=O)Nc1cncc(C(N)=O)c1 (racemic) [Compound 176]")
"< 50 nM"
>>> result("CCc1cc(NC(=O)C(=O)N2C[C@H](C)CC[C@H]2c2ccc3sc(C)nc3c2)cnc1N (single isomer, unassigned) [Compound 801]")
"> 500 nM"
>>> result("Cc1cc(NC(=O)C(=O)N2C[C@@H](C)[C@@H](CC(C)C)C[C@@H]2c2ccc3scnc3c2)cnc1N (single isomer, unassigned) [Compound 1157]")
"> 500 nM"
>>> result("Cc1cc(NC(=O)C(=O)N2C[C@@H](C)CC[C@H]2C23CC(O)(C2)C3)cnc1N (racemic) [Compound 774]")
"50 to 500 nM"
>>> result("COc1ncc(NC(=O)C(=O)N2C[C@@H](C)CC[C@@H]2c2ccc3c(c2)CNC3=O)cc1C(N)=O (single isomer, unassigned) [Compound 750]")
"> 500 nM"
